Source listed as patent US20260116991A1.

Provide the recorded EC50 for the entries that follow.
Molecular target: T1, human GPC3 on CHO-K1-human GPC3 cells (CHOK1-hGPC3.2B5) (human, UniProt P51654 25-554)
T1 construct: whole, on cells
Experiment: FACS, CHOK1-hGPC3.2B5 cells;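 note: flow cytometry of humanized antibodies binding to the cells over one hour in the cold, read as cell mean fluorescence intensity, with EC50 obtained by curve fitting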
Response body: numeric value in nM, unit text excluded.

Record hAb007LH1L1 (antibody, human IgG1, V domains shown, Humanized F3.81.19; VH H1 + VL L1; expressed as human IgG1) VH: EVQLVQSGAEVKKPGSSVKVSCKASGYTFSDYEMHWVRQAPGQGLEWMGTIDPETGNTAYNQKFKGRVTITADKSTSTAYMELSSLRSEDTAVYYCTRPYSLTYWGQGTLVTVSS VL: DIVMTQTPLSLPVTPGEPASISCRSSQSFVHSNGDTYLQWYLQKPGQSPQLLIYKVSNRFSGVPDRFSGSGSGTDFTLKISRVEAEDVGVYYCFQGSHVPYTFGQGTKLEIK , field EC50: 2.02

The reported EC50 of the binder hAb001H1aL1 (antibody, human IgG1, V domains shown, Humanized F2.169.2; VH H1a + VL L1; expressed as human IgG1) VH: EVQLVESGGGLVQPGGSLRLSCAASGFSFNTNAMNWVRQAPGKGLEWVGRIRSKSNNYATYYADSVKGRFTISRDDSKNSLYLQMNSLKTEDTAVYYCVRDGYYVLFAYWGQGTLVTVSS VL: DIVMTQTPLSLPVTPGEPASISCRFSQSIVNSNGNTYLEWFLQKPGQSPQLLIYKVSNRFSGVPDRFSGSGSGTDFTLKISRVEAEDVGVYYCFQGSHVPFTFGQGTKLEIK was 0.269

Value of measured EC50 for the entry hAb001H2L1b (antibody, human IgG1, V domains shown, Humanized F2.169.2; VH H2 + VL L1b; expressed as human IgG1) VH: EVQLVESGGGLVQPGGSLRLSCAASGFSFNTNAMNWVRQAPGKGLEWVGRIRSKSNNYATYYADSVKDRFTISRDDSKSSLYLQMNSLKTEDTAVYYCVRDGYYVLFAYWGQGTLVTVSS VL: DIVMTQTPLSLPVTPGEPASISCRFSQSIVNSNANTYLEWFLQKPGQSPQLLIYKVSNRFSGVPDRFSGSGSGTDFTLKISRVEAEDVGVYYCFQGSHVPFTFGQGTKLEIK : 0.455
